Ref: paper PMC5584254

- measured.target: Bcl-xL-Beclin 1 complex (Homo sapiens, UniProt Q07817)
- Construct: made in house
- Sequence (Q07817 whole entry, one chain of several): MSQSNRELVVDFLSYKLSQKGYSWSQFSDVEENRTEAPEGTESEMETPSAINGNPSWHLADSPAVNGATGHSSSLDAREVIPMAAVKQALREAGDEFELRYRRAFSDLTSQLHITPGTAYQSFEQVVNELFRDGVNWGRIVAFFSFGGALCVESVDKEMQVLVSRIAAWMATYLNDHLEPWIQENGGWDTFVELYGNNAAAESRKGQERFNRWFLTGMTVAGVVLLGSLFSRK
- assay.protocol: Concentration response FP reconfirmation of HTS hits
- Assay type: binding
- stated.conditions: 10 μM; hits of first screen; read-out: Dose-response (% Inhibition) 10 μM
Structures can show the parent of a compound that is named as a salt.
quantity.kind: inhibition at 10 µM (%)
Expressed in %, but write only the number.

Lookup result for O=C(O)c1cc(O)c2c(c1)[C@@H]([C@H]1c3cc(C(=O)O)cc(O)c3C(=O)c3c(O[C@@H]4O[C@H](CO)[C@@H](O)[C@H](O)[C@H]4O)cccc31)c1cccc(O[C@@H]3O[C@H](CO)[C@@H](O)[C@H](O)[C@H]3O)c1C2=O [Compound A35, SENNOSIDE B] ; measured inhibition at 10 µM: 4.1

Lookup result for O=C1C=C2CC3(O)COc4cc(O)ccc4C3=C2C=C1O (stereo not drawn) [Compound A01, BRAZILEIN] ; measured inhibition at 10 µM: 16.9

Lookup result for O=C(O)c1cc(O)c2c(c1)[C@H]([C@H]1c3cc(C(=O)O)cc(O)c3C(=O)c3c(O[C@@H]4O[C@H](CO)[C@@H](O)[C@H](O)[C@H]4O)cccc31)c1cccc(O[C@@H]3O[C@H](CO)[C@@H](O)[C@H](O)[C@H]3O)c1C2=O [Compound A34, SENNOSIDE A] ; measured inhibition at 10 µM: 4.7

Lookup result for CC(C)=CCCC1(C)C=Cc2c(O)c3c(c(CC=C(C)C)c2O1)OC12C(=CCCC1C(C)(C)O[C@@]2(C/C=C(\C)C(=O)O)C(=O)O)C3=O (stereo partly drawn) [Compound A02, GARCINOLIC ACID] ; measured inhibition at 10 µM: 3.3

Lookup result for CCOc1ccc2nc3cc(N)ccc3c(N)c2c1 [Compound A15, ETHACRIDINE LACTATE] ; measured inhibition at 10 µM: 6.2

Lookup result for CCCCCc1c2c(cc(O)c1C(=O)O)OC(=O)c1c(cc(OC)cc1C(=O)CCCC)O2 [Compound A04, LOBARIC ACID] ; measured inhibition at 10 µM: 2.3

Lookup result for O=C1c2cccc(O)c2C(=O)c2c(O)cccc21 [Compound A03, DANTHRON] ; measured inhibition at 10 µM: 1.4

Lookup result for CN(C)c1ccc(C(=C2C=CC(=[N+](C)C)C=C2)c2ccc(N(C)C)cc2)cc1 [Compound A08, GENTIAN VIOLET] ; measured inhibition at 10 µM: 3.7

Lookup result for O=C1c2c(O)ccc(O)c2C(=O)c2c(NCCNCCO)ccc(NCCNCCO)c21 [Compound A11, MITOXANTRONE HYDROCHLORIDE] ; measured inhibition at 10 µM: 4.3
